Data credit: paper PMC4729137

Assay target: WT-AR (Homo sapiens)
Assay explanation: cell-based
pEC50: −log10 of the molar value.
Assay metric: pEC50

C[C@]12CCC(=O)C=C1CC[C@@H]1[C@@H]2[C@@H](O)C[C@@]2(C)[C@H]1CC[C@]2(O)C(=O)CO [hydrocortisone]
< 6.30

---

Assay target: L882I-AR (Homo sapiens, UniProt P10275, L882I)
Assay explanation: cell-based
Assay metric: EC50

C[C@]12CCC(=O)C=C1CC[C@@H]1[C@@H]2[C@@H](O)C[C@@]2(C)[C@H]1CC[C@]2(O)C(=O)CO [hydrocortisone]
> 500 nM

---

Assay target: H875Y/T878A-AR (Homo sapiens, UniProt P10275, H875Y/T878A)
Assay explanation: cell-based
Assay metric: EC50 (nM)

C[C@]12CCC(=O)C=C1CC[C@@H]1[C@@H]2[C@@H](O)C[C@@]2(C)[C@H]1CC[C@]2(O)C(=O)CO [hydrocortisone]
105

---

Assay target: D880E-AR (Homo sapiens, UniProt P10275, D880E)
Assay explanation: cell-based
Assay metric: EC50

C[C@]12CCC(=O)C=C1CC[C@@H]1[C@@H]2[C@@H](O)C[C@@]2(C)[C@H]1CC[C@]2(O)C(=O)CO [hydrocortisone]
> 0.5 µM

---

Assay target: H875Y-AR (Homo sapiens, UniProt P10275, H875Y)
Sequence (P10275 1-920 H875Y): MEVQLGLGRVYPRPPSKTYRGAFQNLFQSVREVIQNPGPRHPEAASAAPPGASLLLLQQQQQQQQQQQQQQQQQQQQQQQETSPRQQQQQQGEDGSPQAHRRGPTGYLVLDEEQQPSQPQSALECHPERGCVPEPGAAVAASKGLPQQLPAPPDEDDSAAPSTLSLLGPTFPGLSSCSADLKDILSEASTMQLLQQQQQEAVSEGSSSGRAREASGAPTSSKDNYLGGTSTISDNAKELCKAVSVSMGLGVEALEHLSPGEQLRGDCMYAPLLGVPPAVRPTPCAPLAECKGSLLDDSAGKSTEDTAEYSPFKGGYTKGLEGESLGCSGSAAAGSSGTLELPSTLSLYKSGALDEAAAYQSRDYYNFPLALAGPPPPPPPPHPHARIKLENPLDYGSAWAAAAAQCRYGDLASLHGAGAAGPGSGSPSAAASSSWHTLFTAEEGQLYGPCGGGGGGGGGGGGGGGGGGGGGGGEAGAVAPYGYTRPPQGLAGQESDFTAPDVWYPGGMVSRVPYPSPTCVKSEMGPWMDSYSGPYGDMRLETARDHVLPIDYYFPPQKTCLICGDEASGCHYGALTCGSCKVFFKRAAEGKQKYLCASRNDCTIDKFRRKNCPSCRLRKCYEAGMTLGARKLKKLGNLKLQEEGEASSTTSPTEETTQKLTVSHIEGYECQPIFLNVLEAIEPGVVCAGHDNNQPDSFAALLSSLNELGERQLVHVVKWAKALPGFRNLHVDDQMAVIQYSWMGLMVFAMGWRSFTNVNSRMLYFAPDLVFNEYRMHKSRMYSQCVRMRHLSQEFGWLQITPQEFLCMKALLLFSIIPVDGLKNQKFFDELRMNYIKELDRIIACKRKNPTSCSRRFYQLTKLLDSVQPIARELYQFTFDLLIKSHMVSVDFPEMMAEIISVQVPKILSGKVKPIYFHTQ
Assay explanation: cell-based
pEC50: −log10 of the molar value.
Assay metric: pEC50

C[C@]12CCC(=O)C=C1CC[C@@H]1[C@@H]2[C@@H](O)C[C@@]2(C)[C@H]1CC[C@]2(O)C(=O)CO [hydrocortisone]
< 6.30

---

Assay target: M896T-AR (Homo sapiens, UniProt P10275, M896T)
Assay explanation: cell-based
pEC50: −log10 of the molar value.
Assay metric: pEC50

C[C@]12CCC(=O)C=C1CC[C@@H]1[C@@H]2[C@@H](O)C[C@@]2(C)[C@H]1CC[C@]2(O)C(=O)CO [hydrocortisone]
< 6.30

---

Assay target: H875Q-AR (Homo sapiens, UniProt P10275, H875Q)
Assay explanation: cell-based
pEC50: −log10 of the molar value.
Assay metric: pEC50

C[C@]12CCC(=O)C=C1CC[C@@H]1[C@@H]2[C@@H](O)C[C@@]2(C)[C@H]1CC[C@]2(O)C(=O)CO [hydrocortisone]
< 6.30

---

Assay target: T878A-AR (Homo sapiens, UniProt P10275, T878A)
Assay explanation: cell-based
Assay metric: EC50

C[C@]12CCC(=O)C=C1CC[C@@H]1[C@@H]2[C@@H](O)C[C@@]2(C)[C@H]1CC[C@]2(O)C(=O)CO [hydrocortisone]
> 0.5 µM
